Readings of ΔTm for the listed compounds
Assay: Binding affinity to poly(dA-dT)n DNA (unknown origin) assessed as change in melting temperature at 0.3 molar ratio of compound:DNA by spectrophotometric analysis
Numbers only here, please. The scale is °C.

Cn1c(-c2ccc(C(=N)N)cc2)nc2cc(C(=N)N)ccc21; 8

compound `N=C(N)c1ccc(-c2nc3cc(C(=N)N)ccc3n2C2CCCCC2)cc1` , ΔTm observed: 2

compound `CCn1c(-c2ccc(C(=N)N)cc2)nc2cc(C(=N)N)ccc21` , ΔTm observed: 5.5

compound `N=C(N)c1ccc2nc(-c3ccc(C(=N)N)s3)[nH]c2c1` , ΔTm observed: 25.2

----------
System: Trypanosoma brucei rhodesiense
Assay: Antitrypanosomal activity against bloodstream form of Trypanosoma brucei rhodesiense STIB900 after 70 hrs by Alamar blue assay
Assay type: functional
Conditions: STIB900, 70 h
Property Label: pIC50
Expect pIC50 as a plain number equal to -log10 of the molar concentration.

Sample answers from the record:
Cn1c(-c2ccc(C(=N)N)cc2)nc2cc(C(=N)N)ccc21; 7.82
N=C(N)c1ccc2nc(-c3ccc(C(=N)N)s3)[nH]c2c1; 7.72
c1cc2nc(-c3ccc(C4=NCCN4)s3)[nH]c2cc1C1=NCCN1; 7.17
CCCn1c(-c2ccc(C(=N)N)cc2)nc2cc(C(=N)N)ccc21; 7.51

compound `N=C(N)c1ccc(-c2nc3cc(C(=N)N)ccc3[nH]2)cc1` , pIC50 observed: 7.51

compound `N=C(N)c1ccc2nc(-c3ccc(C(=N)N)o3)[nH]c2c1` , pIC50 observed: 7.32

compound `N=C(N)c1ccc(-c2nc3cc(C(=N)N)ccc3n2C2CCCCC2)cc1` , pIC50 observed: 6.28

compound `N=C(N)c1ccc(-c2nc3ccc(C(=N)N)cc3n2O)cc1` , pIC50 observed: 5.07

compound `CCn1c(-c2ccc(C(=N)N)cc2)nc2cc(C(=N)N)ccc21` , pIC50 observed: 7.19

----------
Readings of IC50 at 70 h for the listed molecules
Experiment: Cytotoxicity against rat L6 cells assessed as reduction in cell viability after 70 hrs by Alamar blue assay
Format: toxicity

Sample answers from the record:
CCCn1c(-c2ccc(C(=N)N)cc2)nc2cc(C(=N)N)ccc21; > 137 µM
Cn1c(-c2ccc(C(=N)N)cc2)nc2cc(C(=N)N)ccc21; > 169 µM
N=C(N)c1ccc(-c2nc3ccc(C(=N)N)cc3n2O)cc1; > 210 µM

molecule `CCn1c(-c2ccc(C(=N)N)cc2)nc2cc(C(=N)N)ccc21` , IC50 at 70 h observed: > 207 µM

molecule `N=C(N)c1ccc(-c2nc3cc(C(=N)N)ccc3n2C2CCCCC2)cc1` , IC50 at 70 h observed: > 162 µM

----------
Readings of ΔTm for the listed compounds
Test: Binding affinity to poly(dA-dT)n DNA (unknown origin) assessed as change in melting temperature at 0.3 molar ratio of compound:DNA by spectrophotometric analysis
Numbers only here, please. The scale is °C.

compound `c1cc2nc(-c3ccc(C4=NCCN4)s3)[nH]c2cc1C1=NCCN1` , ΔTm observed: 26

compound `N=C(N)c1ccc(-c2nc3cc(C(=N)N)ccc3[nH]2)cc1` , ΔTm observed: 24.7

compound `N=C(N)c1ccc2nc(-c3ccc(C(=N)N)o3)[nH]c2c1` , ΔTm observed: 10.1

compound `N=C(N)c1ccc(-c2nc3ccc(C(=N)N)cc3n2O)cc1` , ΔTm observed: 1.1

compound `CCCn1c(-c2ccc(C(=N)N)cc2)nc2cc(C(=N)N)ccc21` , ΔTm observed: 2.5
